Every entry's value here was drawn from patent US9902725B2.

- tested system: RORγt ligand-binding domain (RORγt-LBD) (Homo sapiens, UniProt P51449)
- Construct: 20 nM recombinantly expressed RORγ-LBD fused to GST
- Sequence (P51449 269-508 limits assumed): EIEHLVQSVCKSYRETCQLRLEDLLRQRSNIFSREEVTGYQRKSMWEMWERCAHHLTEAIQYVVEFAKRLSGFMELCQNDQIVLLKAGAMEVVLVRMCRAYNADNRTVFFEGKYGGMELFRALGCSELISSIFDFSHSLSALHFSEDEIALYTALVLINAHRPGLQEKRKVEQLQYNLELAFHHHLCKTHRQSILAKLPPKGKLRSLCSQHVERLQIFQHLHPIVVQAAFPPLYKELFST
- run description: Time-resolved FRET (TR-FRET) RORγt coactivator assay
- condition notes: GST-RORγ-LBD, biotinylated RIP140 peptide, coactivator displacement
- Source text: Time-resolved FRET (TR-FRET) RORγt coactivator assay was used to identify RORγ modulator compounds with ligand-dependent coactivator displacement. […] For reduction of background from compound fluorescence, TR-FRET method makes use of generic fluorophore labels and time resolved detection. […]
pIC50: −log10 of the molar value.
readout type: pIC50

# annotated cases, reported pIC50 shown
>>> df
                                   compound                             tested_system    test_value
0  COc1ccc(C(NC(=O)Cc2ccc3[nH]cc(CCC(=O)O)c3c2)c2ccccc2)c(N2CCCC2)c1 (stereo not drawn)  RORγt ligand-binding domain (RORγt-LBD) (Homo sapiens, UniProt P51449)        > 6.00
1  Cc1ccc(C(NC(=O)Cc2ccc3[nH]cc(CCC(=O)OC(C)(C)C)c3c2)c2ccccc2OC(C)C)o1 (stereo not drawn)  RORγt ligand-binding domain (RORγt-LBD) (Homo sapiens, UniProt P51449)        > 6.00
2  O=C(O)CCc1c[nH]c2ccc(NC(=O)NC(c3ccccc3)c3ccccc3N3CCCCC3)cc12 (stereo not drawn)  RORγt ligand-binding domain (RORγt-LBD) (Homo sapiens, UniProt P51449)        > 6.00
3  Cc1ccc(C(NC(=O)Cc2ccc3[nH]cc(CCC(=O)OC(C)(C)C)c3c2)c2ncccn2)c(N2CCCCC2)c1 (stereo not drawn)  RORγt ligand-binding domain (RORγt-LBD) (Homo sapiens, UniProt P51449)        > 6.00
4  CC(C)CC(NC(=O)Nc1cnc2[nH]cc(CCC(=O)O)c2c1)c1ccccc1N1CCCCC1 (stereo not drawn)  RORγt ligand-binding domain (RORγt-LBD) (Homo sapiens, UniProt P51449)  4.52 to 5.00

Lookup: # get_value(readout='pIC50', item= Cc1ccc(C(NC(=O)Cc2ccc3[nH]cc(CCC(=O)O)c3c2)c2ccccc2)c(N(C)C)c1 (stereo not drawn) )
Found: > 6.00

Lookup: # get_value(readout='pIC50', item= COC(=O)Cc1c[nH]c2ccc(CC(=O)NC(c3ccccc3)c3ccccc3N3CCCCC3)cc12 (stereo not drawn) )
Found: > 6.00

Lookup: # get_value(readout='pIC50', item= CCOc1ccc(C(NC(=O)Cc2ccc3[nH]cc(CCC(=O)OC(C)(C)C)c3c2)c2ccccc2)c(OCC)c1 (stereo not drawn) )
Found: > 6.00

Lookup: # get_value(readout='pIC50', item= O=C(O)Cc1c[nH]c2ccc(CC(=O)NC(c3ccccc3)c3ccccc3N3CCCCCC3)cc12 (stereo not drawn) )
Found: 5.00 to 6.00

Lookup: # get_value(readout='pIC50', item= Cc1ccc(C(NC(=O)Cc2ccc3[nH]cc(CCC(=O)O)c3c2)c2ccccc2)c2ncccc12 (stereo not drawn) )
Found: > 6.00

Lookup: # get_value(readout='pIC50', item= O=C(O)CCc1c[nH]c2ccc(CC(=O)NC(c3ccccc3)c3cccc4cc[nH]c34)cc12 (stereo not drawn) )
Found: 5.00 to 6.00

Lookup: # get_value(readout='pIC50', item= CCOc1ccc(C(NC(=O)Cc2ccc3[nH]cc(CCC(=O)OC(C)(C)C)c3c2)c2ccccc2)c(N2CCCCC2)c1 (stereo not drawn) )
Found: 5.00 to 6.00

Lookup: # get_value(readout='pIC50', item= Cc1ccc(C)c(C(NC(=O)Cc2ccc3[nH]cc(CCC(=O)O)c3c2)c2ccccc2)c1 (stereo not drawn) )
Found: > 6.00

Lookup: # get_value(readout='pIC50', item= O=C(O)Cc1c[nH]c2ccc(CC(=O)NC(c3ccccc3)c3ccccc3N3CCCC3)cc12 (stereo not drawn) )
Found: 5.00 to 6.00

Lookup: # get_value(readout='pIC50', item= O=C(O)Cc1c[nH]c2ccc(CC(=O)NC(c3ccccc3)c3cc(Cl)ccc3N3CCCCC3)cc12 (stereo not drawn) )
Found: 5.00 to 6.00

Lookup: # get_value(readout='pIC50', item= O=C(O)CCc1c[nH]c2ccc(CC(=O)NC(c3ccccc3)c3ccccc3N3CCCCCC3)cc12 (stereo not drawn) )
Found: > 6.00

Lookup: # get_value(readout='pIC50', item= Cc1ccc(Cl)c(C(NC(=O)Cc2ccc3[nH]cc(CCC(=O)O)c3c2)c2ccccc2)c1 (stereo not drawn) )
Found: > 6.00

Lookup: # get_value(readout='pIC50', item= C#CCC(NC(=O)Cc1ccc2[nH]cc(CCC(=O)OC(C)(C)C)c2c1)c1ccccc1N1CCCCC1 (stereo not drawn) )
Found: 5.00 to 6.00

Lookup: # get_value(readout='pIC50', item= COC(=O)Cc1c[nH]c2ccc(CC(=O)NC(c3ccccc3)c3ccccc3N(C)C)cc12 (stereo not drawn) )
Found: > 6.00

Lookup: # get_value(readout='pIC50', item= Cc1cccc(C(NC(=O)Cc2ccc3[nH]cc(CCC(=O)O)c3c2)c2ccccc2N2CCCCC2)c1 (stereo not drawn) )
Found: > 6.00

Lookup: # get_value(readout='pIC50', item= O=C(O)CCc1c[nH]c2ccc(CC(=O)NC(c3ccccc3)c3ccccc3N3CCCC3)cc12 (stereo not drawn) )
Found: > 6.00
